experiment: chemical genetic growth profiling, strain panel (AID 1159580);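 also: tested at 20 µM; growth read once vehicle control cultures reached saturation at 30 °C; 1 = growth at the plate median or of vehicle wells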; conditions: S. cerevisiae deletion strains, growth OD, strain NNK1, stronger effect = lower value
In all, about 5,500 compounds went through this assay and about 2,000 (36%) were called active. Not shown: some 18% with an inconclusive outcome. This is one part of the list.
Observation type: normalized growth
// return a plain number; no unit text

QUERY: // query normalized growth value for entry O=C(NNc1ccccc1F)c1ccno1
RESULT: 0.983

QUERY: Queued: O=C(N/C=C/c1ccsc1)Nc1cc(C(F)(F)F)cc(C(F)(F)F)c1
RESULT: 0.969

QUERY: Also check Cc1nnsc1C(=O)NNc1ccc(F)cc1F
RESULT: 0.977

QUERY: Subsequent entry: O=C1C(=O)N(CN2CCc3c([nH]c4ccccc34)C2C(F)(F)F)c2ccc(F)cc21 (configuration not stated)
RESULT: 0.981

QUERY: Please give the result for O=C(CSc1nnnn1-c1ccccc1)c1ccccc1 too.
RESULT: 0.973

QUERY: What about this compound? Cc1cc(C(=O)NNc2ccc(F)cc2F)no1
RESULT: 0.979

QUERY: Queued: Cc1cc(NNC(=O)c2ccccc2Cl)nc2c1c(C)nn2C
RESULT: 0.998

QUERY: Note, next up: Cc1nnsc1C(=O)Nc1cc(C(F)(F)F)cc(C(F)(F)F)c1
RESULT: 0.925

QUERY: Also Cc1cc(Cl)ccc1NNC(=O)c1snnc1C , if possible.
RESULT: 0.955

QUERY: Thanks! And CC(=O)CSc1nnc(-c2ccc(C(C)(C)C)cc2)n1-c1ccc(Cl)cc1 ?
RESULT: 0.997

QUERY: Would you kindly repeat that for COc1ccc(/C=C2\CSc3ccc(F)cc3C2=O)cc1 ?
RESULT: 0.962

QUERY: One more compound: Cc1cc(Cl)ccc1NNC(=O)c1ccno1
RESULT: 0.955

###

assay: chemical genetic growth profiling, strain panel (AID 1159580);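 also: tested at 20 µM; growth read once vehicle control cultures reached saturation at 30 °C; 1 = growth at the plate median or of vehicle wells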; details: S. cerevisiae deletion strains, growth OD, locus YNL307C, strain MCK1 (second series), stronger effect = lower value
The campaign covered roughly 5,500 compounds. About 2,000 (36%) were called active. About 18% were inconclusive and are not listed. Some of the results follow.
Exam item: assign Criterion met to entries whose normalized growth is below 0.9 and Criterion not met to entries at or above 0.9. Note that a value of exactly 0.9 receives Criterion not met.

QUERY: Consider COc1ccc(/C=C2\CSc3ccc(F)cc3C2=O)cc1 . Does its normalized growth lie strictly below 0.9?
RESULT: Criterion not met

QUERY: Try Cc1ccc(OCC2SCCN2C(=O)c2ccc(C(F)(F)F)cc2)c([N+](=O)[O-])c1 (stereo unspecified) next.
RESULT: Criterion not met

QUERY: Same lookup for Cc1c(Cc2ccc(F)cc2)c(=O)oc2cc(O)ccc12 , please.
RESULT: Criterion not met

QUERY: And then CCOC(=O)CSC(=S)NCc1ccc(C)cc1 , what is it?
RESULT: Criterion not met

QUERY: What about N#CC(C#N)=C(SCc1c(Cl)cccc1Cl)SCc1c(Cl)cccc1Cl ?
RESULT: Criterion not met

QUERY: Likewise for COc1cc(NC(=S)NC(=O)c2ccccc2)c(OC)cc1Cl ?
RESULT: Criterion not met

QUERY: Further, for Cc1ccc(-c2csc(-c3cccnc3)n2)c(C)c1 ?
RESULT: Criterion met

QUERY: Please give the result for Cc1ccccc1C(=O)Oc1ccc(C(F)(F)F)cc1[N+](=O)[O-] too.
RESULT: Criterion met

QUERY: Same lookup for Cc1nnsc1C(=O)Nc1cc(C(F)(F)F)cc(C(F)(F)F)c1 , please.
RESULT: Criterion not met

QUERY: // repeat for OC1(C(F)(F)F)CC(C23CC4CC(CC(C4)C2)C3)=NN1 (stereo unspecified) and report
RESULT: Criterion met

QUERY: Also check O=S(=O)(Nc1cccc2nsnc12)c1cc(Cl)sc1Cl
RESULT: Criterion not met

QUERY: And then S=C(Nc1ccc(Cl)cc1Cl)N(c1cccc(Cl)c1)c1nc2ccccc2s1 , what is it?
RESULT: Criterion met

QUERY: One more compound: Cc1nn(Cc2cccc(C(=O)Nc3ccc(Cl)cc3)c2)c(C)c1Br
RESULT: Criterion not met

QUERY: Okay, and N#Cc1ccc(S(=O)(=O)Nc2ccccc2Oc2ccc(Cl)cc2Cl)cc1 ?
RESULT: Criterion not met

QUERY: Next record, please: Cc1cc(C(=O)Nc2ccc(Cl)cc2)nn1C(C)(C)C
RESULT: Criterion not met

QUERY: Could you do the same for Cc1nnsc1C(=O)NNc1ccc(F)cc1F , please?
RESULT: Criterion met

QUERY: What do we get for O=S(=O)(Nc1cccc(CCc2ccccn2)c1)c1cc(Cl)c(Cl)cc1Cl ?
RESULT: Criterion not met

QUERY: Similarly, Cc1ccc(/C=C2\CSc3ccc(F)cc3C2=O)cc1 ?
RESULT: Criterion met

QUERY: What do you have for O=C(N/C=C/c1ccsc1)Nc1cc(C(F)(F)F)cc(C(F)(F)F)c1 ?
RESULT: Criterion met

QUERY: Next record, please: Cc1cc(NNC(=O)c2ccccc2Cl)nc2c1c(C)nn2C
RESULT: Criterion not met

###

assay: chemical genetic growth profiling, strain panel (AID 1159580);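 also: tested at 20 µM; growth read once vehicle control cultures reached saturation at 30 °C; 1 = growth at the plate median or of vehicle wells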; conditions: S. cerevisiae deletion strains, growth OD, locus YIL125W, strain kgd1
Hit rate of the full screen: of about 5,500 compounds, about 2,000 (36%) were called active. Roughly 18% stayed inconclusive and do not appear here. No stated cut-off is given here; in the data, active means normalized growth mostly below about 0.91 (no sharp cut-off); inconclusive means no clear call, values can overlap the other calls; inactive means mostly above about 0.92. Some of the results follow.
Bench note: report the call from true (1) for active, false (0) for inactive

QUERY: Assay outcome for CN(C)CC/C=C1\c2ccccc2Sc2ccc(Cl)cc21 : what was it?
RESULT: false (0)

QUERY: Again, but for CC(C(=O)O)c1ccc(-c2ccccc2)c(F)c1 (stereo not given)
RESULT: true (1)

QUERY: Next: CCC(C)C(=O)O[C@H]1[C@H](O)C2C(CN3CC(C)CCC3[C@@]2(C)O)C2C[C@]34O[C@]5(O)C(OC(=O)C(C)(O)C(C)O)CC[C@@]3(C)C5C(OC(C)=O)[C@@H](OC(C)=O)C4[C@@]21O (stereo not given in full)
RESULT: false (0)

QUERY: How about this molecule: CCCCCCCCNC(C)C(O)c1ccc(SC(C)C)cc1 (stereo not given)
RESULT: false (0)

QUERY: COc1cc2c(cc1OC)C(=O)OC2 , same question.
RESULT: false (0)

QUERY: Input CC(C(=O)O)c1cccc(Oc2ccccc2)c1 (stereo not given)
RESULT: false (0)

QUERY: Another: COc1ccc2c3c1O[C@H]1C[C@@H](O)C=C[C@@]31CCN(C)C2
RESULT: false (0)

QUERY: Record: CC1=C(C(C)O)C2=NC1C=c1[nH]c(c(C)c1C(C)O)=Cc1[nH]c(c(CCC(=O)O)c1C)C=c1[nH]c(c(C)c1CCC(=O)O)=C2 (stereo not given)
RESULT: false (0)

QUERY: What about this molecule? CN[C@@H](C)[C@@H](O)c1ccccc1
RESULT: false (0)

QUERY: Would you kindly repeat that for CNC(C)[C@H](O)c1ccccc1 (stereo not given in full) ?
RESULT: false (0)

###

experiment: chemical genetic growth profiling, strain panel (AID 1159580);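 also: tested at 20 µM; growth read once vehicle control cultures reached saturation at 30 °C; 1 = growth at the plate median or of vehicle wells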; details: S. cerevisiae deletion strains, growth OD, locus YGL173C, strain kem1
Hit rate of the full screen: of about 5,500 compounds, about 2,000 (36%) were called active. Another 18% or so got no clear call; they are omitted. Rule as the data show it: active = normalized growth mostly below about 0.91 (no sharp cut-off); inconclusive = no clear call, values can overlap the other calls; inactive = mostly above about 0.92. This is one part of the list.
Field 'call' accepts active, inactive

QUERY: Assay outcome for CC1=C(/C=C/C(C)=C/C=C/C(C)=C/C=C/C=C(C)/C=C/C=C(C)/C=C/C(=O)[C@]2(C)C[C@@H](O)CC2(C)C)C(C)(C)C[C@H](O)C1 : what was it?
RESULT: inactive

QUERY: And what about the molecule CC1=C(C(C)O)C2=NC1C=c1[nH]c(c(C)c1C(C)O)=Cc1[nH]c(c(CCC(=O)O)c1C)C=c1[nH]c(c(C)c1CCC(=O)O)=C2 (configuration not stated) ?
RESULT: inactive

QUERY: Repeat for the following molecule: O=C1C=CC(=C(c2ccc(O)cc2)c2ccc(O)cc2)C=C1
RESULT: inactive

QUERY: What do you get for CC1=C(/C=C/C(C)=C/C=C/C(C)=C/C=C/C=C(C)/C=C/C=C(C)/C=C/C2=C(C)C(=O)CCC2(C)C)C(C)(C)CCC1=O ?
RESULT: inactive

QUERY: Now consider C=Cc1c2[nH]c(c1C)C=c1[nH]c(c(C)c1C=C)=CC1N=C(C=c3[nH]c(c(C)c3CCC(=O)O)=C2)C(CCC(=O)O)=C1C (configuration not stated) and answer again.
RESULT: inactive

QUERY: How about CN(C)c1ccc(C(=C2C=CC(=[N+](C)C)C=C2)c2ccc(N(C)C)cc2)cc1 ?
RESULT: active

QUERY: What do you have for CC1=C(/C=C/C(C)=C/C=C/C(C)=C/C=C/C=C(C)/C=C/C=C(C)/C=C/C2=C(C)C(=O)C(O)CC2(C)C)C(C)(C)CC(O)C1=O (configuration not stated) ?
RESULT: inactive
